What mortality at 20 ppm was measured for each of the following?
- Tested on: Haemonchus contortus
- condition description: 120 h, read-out: activity (larval mortality)
Answer format: numeric, % implied, no suffix.

Could you share which mortality at 20 ppm value was measured for O=C(N[C@H]1CCOc2ccccc21)c1cnc2c(-c3cccc(Cl)c3)cccc2c1N1CCC(O)C1 (mixture of isomers) [Example 260] ?
90

CN(C)c1c(C(=O)N[C@H]2CCOc3ccccc32)cnc2c(-c3ccc(F)cc3Cl)c(F)ccc12 [Example 172] ?
100

Query O=C(N[C@H]1CCOc2ccccc21)c1cnc2c(-c3cc(Cl)ccc3F)cccc2c1N1CCOCC1 [Example 221] next
100

Next up: O=C(N[C@H]1CCOc2ccccc21)c1cnc2c(-c3cc(Cl)ccc3F)c(F)ccc2c1N1CCOCC1 [Example 170]
100

Follow-up item: CC(=O)N(C)Cc1c(C(=O)N[C@H]2CCOc3ccccc32)cnc2c(-c3cc(Cl)cc(Cl)c3)cccc12 [Example 631]
100

Item: O=C(O)CNc1c(C(=O)N[C@H]2CCOc3ccccc32)cnc2c(-c3cc(Cl)cc(Cl)c3)cccc12 [Example 276]
80

Now this one: O=C(N[C@H]1CCOc2ccccc21)c1cnc2c(-c3cc(F)cc(Cl)c3)c(F)ccc2c1N1CCOCC1 [Example 143]
100

# iterate: O=C(N[C@H]1CCOc2ccccc21)c1cnc2c(-c3cc(Cl)cc(Cl)c3)cccc2c1C1CCOCC1 [Example 539]
100

Subsequent entry: CN(c1c(C(=O)N[C@H]2CCOc3ccccc32)cnc2c(-c3cccc(Cl)c3Cl)cccc12)C1COC1 [Example 331]
100

----------
For each entry below, report its EC50 value.
- target entity: C. elegans Slo-1a (Caenorhabditis elegans)
- Sequence (Q95V25 whole entry): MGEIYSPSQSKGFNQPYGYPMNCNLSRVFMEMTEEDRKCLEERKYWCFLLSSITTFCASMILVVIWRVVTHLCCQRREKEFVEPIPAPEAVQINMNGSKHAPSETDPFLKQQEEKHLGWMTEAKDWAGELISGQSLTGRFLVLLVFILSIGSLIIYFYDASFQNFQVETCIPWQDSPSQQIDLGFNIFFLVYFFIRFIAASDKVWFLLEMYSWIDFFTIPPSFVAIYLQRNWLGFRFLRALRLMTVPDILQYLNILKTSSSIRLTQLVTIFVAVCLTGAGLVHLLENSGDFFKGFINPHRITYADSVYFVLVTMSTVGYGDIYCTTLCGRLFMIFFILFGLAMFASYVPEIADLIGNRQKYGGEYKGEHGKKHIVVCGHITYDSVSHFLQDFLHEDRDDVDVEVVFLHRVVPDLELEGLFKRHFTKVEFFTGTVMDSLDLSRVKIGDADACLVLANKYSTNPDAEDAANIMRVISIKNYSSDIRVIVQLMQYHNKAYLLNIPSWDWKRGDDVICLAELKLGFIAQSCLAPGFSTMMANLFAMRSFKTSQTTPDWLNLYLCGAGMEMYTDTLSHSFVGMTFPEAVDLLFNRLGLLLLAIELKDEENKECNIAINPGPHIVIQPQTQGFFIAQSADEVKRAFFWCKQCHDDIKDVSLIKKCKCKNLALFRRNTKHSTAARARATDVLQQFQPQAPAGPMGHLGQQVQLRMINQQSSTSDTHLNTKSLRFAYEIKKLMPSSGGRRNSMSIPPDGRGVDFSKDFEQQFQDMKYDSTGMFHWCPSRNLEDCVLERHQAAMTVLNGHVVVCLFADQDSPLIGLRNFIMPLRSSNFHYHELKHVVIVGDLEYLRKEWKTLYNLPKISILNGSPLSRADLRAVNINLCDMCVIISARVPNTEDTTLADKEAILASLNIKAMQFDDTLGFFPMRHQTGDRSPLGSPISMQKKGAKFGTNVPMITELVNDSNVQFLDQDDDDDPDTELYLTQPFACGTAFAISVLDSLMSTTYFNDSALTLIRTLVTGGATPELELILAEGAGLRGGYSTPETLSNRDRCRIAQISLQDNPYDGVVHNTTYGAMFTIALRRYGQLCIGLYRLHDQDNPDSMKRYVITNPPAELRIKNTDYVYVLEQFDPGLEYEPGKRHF
- condition description: pE50 (negative decadic logarithm of EC50), CHO cells expressing C. elegans Slo-1a, voltage sensitive dye

Recorded EC50 for O=C(N[C@H]1CCOc2ccccc21)c1cnc2c(-c3cc(Cl)cc(Cl)c3)cccc2c1-n1ccnn1 [Example 188] , please?
3.16 to 31.6 nM

Subsequent entry: Cc1ccc(F)c(-c2cccc3c(N(C)C)c(C(=O)N[C@H]4CCOc5ccccc54)cnc23)c1 [Example 437]
< 3.16 nM

And then O=C(N[C@H]1CCc2ccccc21)c1cnc2c(-c3cc(Cl)cc(Cl)c3)cccc2c1Cl [Example 3] , what is it?
3.16 to 31.6 nM

What about O=C(N[C@H]1CCOc2ccccc21)c1cnc2c(-c3cccc4c3OCC4)cccc2c1N1CCOCC1 [Example 204] ?
3.16 to 31.6 nM

Try this molecule next: O=C(N[C@H]1CCOc2ccccc21)c1cnc2c(-c3cc(Cl)cc(Cl)c3)cccc2c1-c1ccncc1 [Example 396]
< 3.16 nM

What about O=C(O)CNc1c(C(=O)N[C@H]2CCOc3ccccc32)cnc2c(-c3cc(Cl)cc(Cl)c3)cccc12 [Example 276] ?
31.6 to 316 nM

Moving on to the next molecule: CN(c1c(C(=O)N[C@H]2CCOc3ccccc32)cnc2c(-c3cccc(Cl)c3Cl)cccc12)C1COC1 [Example 331]
< 3.16 nM

Subsequent entry: CN(C)c1c(C(=O)N[C@H]2CCOc3ccccc32)cnc2c(-c3cccc(C(F)(F)F)c3F)cccc12 [Example 50]
< 3.16 nM

Also O=C(N[C@H]1CCCc2ccccc21)c1cnc2c(-c3cc(Cl)cc(Cl)c3)cccc2c1Cl [Example 2] , if possible.
3.16 to 31.6 nM

Would you kindly repeat that for COc1cc(-c2cccc3c(N(C)C)c(C(=O)N[C@H]4CCOc5ccccc54)cnc23)ccn1 [Example 64] ?
3.16 to 31.6 nM

How about O=C(N[C@H]1CCOc2ccccc21)c1cnc2c(-c3cc(Cl)cc(Cl)c3)c(O)ccc2c1N1CCOCC1 [Example 616] ?
< 3.16 nM

Further, for CC(C)(C)OC(=O)[C@@H]1CCCN1c1c(C(=O)N[C@H]2CCOc3ccccc32)cnc2c(-c3cc(Cl)cc(Cl)c3)cccc12 [Example 242] ?
31.6 to 316 nM

Here is the next molecule: CC(C)c1c(C(=O)N[C@H]2CCOc3ccccc32)cnc2c(-c3cccc(C(F)(F)F)c3)cccc12 [Example 411]
< 3.16 nM

One more molecule: O=C(N[C@H]1CCOc2ccccc21)c1cnc2c(-c3cccc(Cl)c3Cl)cccc2c1C1=CCOCC1 [Example 653]
< 3.16 nM

Likewise for O=C(N[C@H]1CCOc2ccccc21)c1cnc2c(-c3cc(Cl)cc(Cl)c3)cccc2c1N1CC(F)C1 [Example 392] ?
3.16 to 31.6 nM

Request: CN(C)c1c(C(=O)N[C@H]2CCOc3ccccc32)cnc2c(-c3cccc(Cl)c3)c(F)ccc12 [Example 141]
< 3.16 nM

// same read-out, input: CC(C)(C)OC(=O)[C@@H]1CCCN1c1c(C(=O)N[C@H]2CCOc3ccccc32)cnc2c(-c3cc(Cl)cc(Cl)c3)cccc12 [Example 243]
316 to 5010 nM

Now the molecule CN(C)c1c(C(=O)N[C@H]2CCOc3ccccc32)cnc2c(-c3cc(Cl)ncc3Cl)cccc12 [Example 415]
< 3.16 nM

What do we get for O=C(N[C@H]1CCOc2ccccc21)c1cnc2c(-c3cccc(Cl)c3)cccc2c1N1CCC(O)C1 (mixture of isomers) [Example 260] ?
< 3.16 nM
